- Experimental Details: Single ascending dose (SAD) pharmacokinetics, Compound I in plasma
- Type: in vivo, human
- Settings: both sexes, human, plasma; healthy volunteers, following a single oral dose
Value Kind: half-life

// query half-life value for entry Cc1c(C#N)cccc1-c1cc(-c2cn(Cc3cccc(C(C)(C)O)n3)nn2)nc(N)n1 [Compound I] ~20 h
